tested on: Calu-3; test: cell viability relative to DMSO; higher = less toxic; settings: 72 h; 10000 nM
Sorting guide: entries reporting cell viability beneath 90% go in the YES pile, the rest go in the NO pile.

Problem: Identify whether the molecule `C[C@@H]1CC[C@@]2(NC1)O[C@H]1C[C@H]3[C@@H]4CC=C5C[C@@H](O[C@@H]6O[C@H](CO)[C@@H](O[C@@H]7O[C@@H](C)[C@H](O)[C@@H](O)[C@H]7O)[C@H](O)[C@H]6O[C@@H]6O[C@@H](C)[C@H](O)[C@@H](O)[C@H]6O)CC[C@]5(C)[C@H]4CC[C@]3(C)[C@H]1[C@@H]2C` records cell viability below 90%.
Result: YES

Problem: Identify whether the molecule `COC1CCN(c2cccc(-c3cc(NC(C)=O)nc(-n4nc(C)cc4C)n3)n2)CC1` records cell viability below 90%.
Result: NO

Problem: Identify whether the molecule `CCCCOc1ccc(C(=O)Nc2ccc(F)cc2F)cc1` records cell viability below 90%.
Result: NO

Problem: Identify whether the molecule C=CCOc1ccccc1OCC(O)CNC(C)C (stereo unspecified) records cell viability below 90%.
Result: NO

Problem: Identify whether the molecule `CCNC1(C(N)=O)CCN(c2ncnc3c2nc(-c2ccccc2Cl)n3-c2ccc(Cl)cc2)CC1` records cell viability below 90%.
Result: NO

Problem: Identify whether the molecule CCCN[C@H]1CCc2nc(N)sc2C1 [pramipexole] records cell viability below 90%.
Result: NO

Problem: Identify whether the molecule `CCC(CC)COC(=O)[C@H](C)N[P@](=O)(OC[C@H]1O[C@@](C#N)(c2ccc3c(N)ncnn23)[C@H](O)[C@@H]1O)Oc1ccccc1` records cell viability below 90%.
Result: YES

Problem: Identify whether the molecule `S=C(NCc1ccc2c(c1)OCO2)N1CCN(c2ncnc3c2oc2ccccc23)CC1` records cell viability below 90%.
Result: YES

Problem: Identify whether the molecule `O=C(O)c1cccnc1Nc1cccc(C(F)(F)F)c1` records cell viability below 90%.
Result: NO

Problem: Identify whether the molecule `O=C(O)P(=O)(O)O` records cell viability below 90%.
Result: NO

Problem: Identify whether the molecule `N#Cc1ccc(-c2csc(NN=C3CCCC3)n2)cc1` records cell viability below 90%.
Result: NO

====

system: Caco-2; assay: cell viability relative to DMSO; higher = less toxic; conditions: 72 h; 100 nM
I'd be grateful if you could share measured cell viability for these entries.
Numeric answer only, unit % assumed.

Lookup result for CCc1nn(CCCN2CCN(c3cccc(Cl)c3)CC2)c(=O)n1CCOc1ccccc1 [nefazodone] ; measured cell viability: 100

Lookup result for C=CCOc1ccccc1OCC(O)CNC(C)C (stereo unspecified) [oxprenolol] ; measured cell viability: 98

Lookup result for CNCC[C@@H](Oc1ccccc1C)c1ccccc1 [atomoxetine] ; measured cell viability: 98.3

Lookup result for N#Cc1cc2c(OCC(O)CN3CCN(C(c4ccccc4)c4ccccc4)CC3)cccc2[nH]1 (stereo unspecified) ; measured cell viability: 112

Lookup result for O=C1C(Cl)=C(N2CCOCC2)C(=O)N1c1ccc(Cl)c(Cl)c1 [RI-1] ; measured cell viability: 93.2

Lookup result for O=c1cc(N2CCN(c3cccc(C(F)(F)F)c3)CC2)[nH]c(=O)n1C1CCCCC1 [ML179] ; measured cell viability: 97.2

Lookup result for CN1[C@@H]2CC[C@H]1C[C@@H](OC(c1ccc(F)cc1)c1ccc(F)cc1)C2 [3-alpha-bis-(4-fluorophenyl)-methoxytropane] ; measured cell viability: 92.6

Lookup result for CN1C(=O)N(c2ccc(C#N)c(C(F)(F)F)c2)C(=O)[C@]1(CO)c1ccccc1 [GLPG0492-R-enantiomer] ; measured cell viability: 94.4

Lookup result for [Cl][Ti][Cl].c1cc[cH-]c1.c1cc[cH-]c1 [titanocene-dichloride] ; measured cell viability: 99.2

Lookup result for `CN(CCOc1ccc(-c2ccc3c(c2)OCO3)cc1C(C)(C)C)CC(=O)O` ; measured cell viability: 94.2

Lookup result for Cc1cc(O)ccc1Cl [chlorocresol] ; measured cell viability: 100

Lookup result for CC12CC3CC(C)(C1)CC(N)(C3)C2 [memantine] ; measured cell viability: 90.3

Lookup result for FC(F)(F)c1ccc(Nc2ncnc3cc(-c4ncccc4C(F)(F)F)ccc23)cc1 [MK-2295] ; measured cell viability: 91.9

Lookup result for CN1CCC(=C2c3ccccc3CCc3sccc32)CC1 [pizotifen] ; measured cell viability: 101

Lookup result for CN(C)/N=N/c1ccc(C(=O)O)cc1 [CB-10-277] ; measured cell viability: 101

Lookup result for CC(C)(C)/[N+]([O-])=C/c1ccc(S(=O)(=O)O)cc1S(=O)(=O)O [NXY-059] ; measured cell viability: 96.5

Lookup result for CC(C)=CCC/C(C)=C/CC/C(C)=C/C=C/C(C)=C/C(=O)O [peretinoin] ; measured cell viability: 101

Lookup result for Cc1cc(-c2nc3cc(F)ccc3s2)ccc1NC(=O)[C@@H](N)CCCCN [phortress] ; measured cell viability: 93.3

Lookup result for NS(=O)(=O)c1ccc2c(c1)C1C=CCC1C(c1ccc(Br)cc1)N2 (stereo unspecified) [4BP-TQS] ; measured cell viability: 99.6

Lookup result for `CO[C@@H](C)Cn1c(=O)n(C)c2cnc3ccc(-c4cncc(C(C)(C)O)c4)cc3c21` ; measured cell viability: 82.4

Lookup result for CC(=O)c1c(O)cc(C)oc1=O [dehydroacetic-acid] ; measured cell viability: 91.9

Lookup result for C=C[C@@H]1C[C@]1(NC(=O)[C@@H]1C[C@@H]2CN1C(=O)[C@H](C(C)(C)C)NC(=O)O[C@@H]1C[C@H]1CCCCCc1nc3ccc(OC)cc3nc1O2)C(=O)NS(=O)(=O)C1CC1 [grazoprevir] ; measured cell viability: 105

Lookup result for CC1(C)S[C@@H]2[C@H](NC(=O)COc3ccccc3)C(=O)N2[C@H]1C(=O)O [penicillin-v-potassium] ; measured cell viability: 94.3

Lookup result for COCC1(CO)C(=O)C2CCN1CC2 (stereo unspecified) [APR-246] ; measured cell viability: 95.1

Lookup result for CCCCN(Cc1ccc(C(=O)NO)cc1)C(=O)Nc1ccccc1 [nexturastat-A] ; measured cell viability: 109

Lookup result for CN1CCN(C(c2ccccc2)c2ccc(Cl)cc2)CC1 (stereo unspecified) [chlorcyclizine] ; measured cell viability: 79.4

====

tested on: Vero E6; experiment: cell viability relative to DMSO; higher = less toxic; conditions: 72 h; 10 nM
I'd be grateful if you could share measured cell viability for these entries.
Numeric answer only, unit % assumed.

Kindly note: Vero E6, COc1cc(OC2CCN(C)CC2)ccc1Nc1ncc2c(n1)n(C1CCCC1)c(=O)n2C [AZ3146] , cell viability value reported: 104

Kindly note: Vero E6, OC(CCN1CCCCC1)(c1ccccc1)C1CC2C=CC1C2 (centres undefined) [biperiden] , cell viability value reported: 95.8

Kindly note: Vero E6, O=[N+]([O-])c1ccc2c(c1)S(=O)(=O)C=C2 [stattic] , cell viability value reported: 99

Kindly note: Vero E6, CN(C)C(=N)NCCC[C@H](N)C(=O)O [asymmetrical-dimethylarginine] , cell viability value reported: 101

Kindly note: Vero E6, C[C@]12Cc3c[nH]nc3C[C@@H]1CC[C@@H]1[C@@H]2CC[C@@]2(C)[C@H]1CC[C@]2(C)O [stanozolol] , cell viability value reported: 109

Kindly note: Vero E6, C=CCOc1ccccc1OCC(O)CNC(C)C (centres undefined) [oxprenolol] , cell viability value reported: 104

Kindly note: Vero E6, O=C(NCc1cccc(O)c1)Nc1nc(-c2ccncc2)cs1 [RKI-1447] , cell viability value reported: 100

Kindly note: Vero E6, CCc1cccc(CC)c1NC(=O)CN(CC(=O)O)CC(=O)O [etifenin] , cell viability value reported: 93.7

Kindly note: Vero E6, Cc1nc(Nc2ccc(F)cc2)nc(N2CCc3ccccc3C2C)c1C (centres undefined) [revaprazan] , cell viability value reported: 106

====

system: Calu-3; experiment: cell viability relative to DMSO; higher = less toxic; conditions: 72 h; 100 nM
I'd be grateful if you could share measured cell viability for these entries.
Numeric answer only, unit % assumed.

Lookup result for Clc1ccc(CO/N=C(\Cn2ccnc2)c2ccc(Cl)cc2Cl)c(Cl)c1 [oxiconazole] ; measured cell viability: 83.4

Lookup result for OC(CN1CCN(c2cccc(Cl)c2)CC1)C(c1ccccc1)c1ccccc1 (stereo not drawn) ; measured cell viability: 98.6

Lookup result for CNC(=O)c1c(I)c(NC(C)=O)c(I)c(C(=O)O)c1I [iothalamic-acid-d3] ; measured cell viability: 80.3

Lookup result for `Cc1cc(NC(=O)Nc2ccc(N(C)C)cc2)c2cc(F)cc(F)c2n1` ; measured cell viability: 101

Lookup result for C[C@@H](CN1CCC(Cc2ccccc2)CC1)[C@@H](O)c1ccc(O)cc1 [Ro-25-6981] ; measured cell viability: 89.1

Lookup result for CN1C(=O)N(c2ccc(C#N)c(C(F)(F)F)c2)C(=O)[C@]1(CO)c1ccccc1 [GLPG0492-R-enantiomer] ; measured cell viability: 106

Lookup result for CC(C)=CCC/C(C)=C/CC/C(C)=C/C=C/C(C)=C/C(=O)O [peretinoin] ; measured cell viability: 105

Lookup result for COC(=O)N[C@H](C(=O)N1CCC[C@H]1C(=O)Nc1ccc([C@@H]2CC[C@@H](c3ccc(NC(=O)[C@@H]4CCCN4C(=O)[C@@H](NC(=O)OC)C(C)C)cc3)N2c2ccc(C(C)(C)C)cc2)cc1)C(C)C [ombitasvir] ; measured cell viability: 108

Lookup result for COc1ccc(C(=O)CC2(O)C(=O)Nc3c(Cl)ccc(Cl)c32)cc1 (stereo not drawn) [YK-4-279] ; measured cell viability: 101

Lookup result for CCCN[C@H]1CCc2nc(N)sc2C1 [pramipexole] ; measured cell viability: 107

Lookup result for Cc1ccccc1CN1C(=O)C2=C(CCN(Cc3ccccc3)C2)N2CCN=C12 [ONC201] ; measured cell viability: 102

Lookup result for CC(=O)[C@H]1CC[C@H]2[C@@H]3CC[C@H]4C[C@H](O)CC[C@]4(C)[C@H]3C(=O)C[C@]12C [alfaxalone] ; measured cell viability: 87.7

Lookup result for C=C[C@@H]1C[C@]1(NC(=O)[C@@H]1C[C@@H]2CN1C(=O)[C@H](C(C)(C)C)NC(=O)O[C@@H]1C[C@H]1CCCCCc1nc3ccc(OC)cc3nc1O2)C(=O)NS(=O)(=O)C1CC1 [grazoprevir] ; measured cell viability: 105

All figures here come from the supplement of paper PMC13380429.
